Measured specificity ELISA, fold over background values are reported for all entries that follow.
target.under.test: T1, Acro COVID S1 (S1N-C82E8) (SARS-CoV-2, UniProt P0DTC2 16-685)
T1 construct: domain: S1 (subunit 1)
measurement.notes: phage ELISA
Express your answer in fold over background, writing the number without its unit.

binder | specificity ELISA, fold over background [fold over background]
SARS-CoV-2 variant 1-23 (antibody, V domains shown) VH: EVQLLESGGGLVQPGGSLRLSCAASGFTFSSYAISWVRQAPGKGLEWVSIISGSGGSTYYADSVKGRFTISRDNSKNTLYLQMNSLRAEDTAVYYCAREGYRDYLWYFDLWGQGTLVTVSS VL: QSALTQPASVSGSPGQSITISCTGTSNDVGSYNLVSWYQQHPGKAPKLMIYEGNKRPSGVSNRFSGSKSGNTASLTISGLQAEDEADYYCCSYAGSYTVFGGGTKLTVL | 5.1
SARS-CoV-2 variant 1-30 (antibody, V domains shown) VH: EVQLLESGGGLVQPGGSLRLSCAASGFTFSSYAMTWVRQAPGKGLEWVSAISGSGGSTFYADSVKGRFTISRDNSKNTLYLQMNSLRAEDTAVYYCTRPPYGDYGDYWGQGTLVTVSS VL: QSALTQPASVSGSPGQSITISCTGTSRDVGSYNLVSWYQQHPGKAPKLMIYEGTKRPSGVSNRFSGSKSGNTASLTISGLQAEDEADYYCCSYAGSRTPVVFGGGTKLTVL | 16.8

API: the following record is the query input.
QUERY: Dear colleague, I am looking for the recorded specificity ELISA, fold over background of the following binder: SARS-CoV-2 variant 1-10 (antibody, V domains shown) VH: EVQLLESGGGLVQPGGSLRLSCAASGFTFSSYDMSWVRQAPGKGLEWVSVISGSGGSTYYADSVKGRFTISRDNSKNTLYLQMNSLRAEDTAVYYCAKGPLVGWYFDLWGQGTLVTVSS VL: QSALTQPASVSGSPGQSITISCTGTSSNVGSYNLVSWYQQHPGKAPKLMIYEGTKRPSGVSNRFSGSKSGNTASLTISGLQAEDEADYYCCSYAGSSSFVVFGGGTKLTVL
RESULT: 17.4
